# Tested on: HIV-1
# assay.overview: Inhibition of HIV-1-induced cytopathic effect (CPE) in MT-4 cells
# Format: cell-based, HIV-1 (LAV-1) in human MT-4 cells
# cond: MT-4 cells; 7200 min
measurement.label: r = CC0/IC100

Request: # query: r = CC0/IC100 of entry CC(=O)OCC1=C[C@H]2[C@@H]3C(C)(C)[C@]3(OC(C)=O)[C@H](OC(C)=O)[C@@H](C)[C@]2(O)[C@@H]2C=C(C)C(=O)[C@@]2(O)C1 [Compound 11, Phorbol-12,13,20-triacetate]
Result: 2.00

Request: Try this compound next: C/C=C(\C)C(=O)O[C@@]12[C@H](OC(C)=O)[C@@H](C)[C@@]3(O)[C@@H](C=C(CO)C[C@]4(O)C(=O)C(C)=C[C@@H]34)[C@@H]1C2(C)C [Compound 3, 12-O-Acetylphorbol-13-tigliate]
Result: 4.00

---

# Tested on: protein kinase C (PKC)
# Type: biochemical, mouse
# cond: 10 ng/mL (standard concentration)

molecule	PKC activation (in words)
CC(=O)OCC1=C[C@H]2[C@@H]3C(C)(C)[C@]3(OC(C)=O)[C@H](OC(C)=O)[C@@H](C)[C@]2(OC(C)=O)[C@@H]2C=C(C)C(=O)[C@@]2(OC(C)=O)C1 [Compound 17, Phorbol-4,9,12,13,20-pentaacetate]	did not activate PKC
CCCCC/C=C\C/C=C\CCCCCCCC(=O)OCC1=C[C@H]2[C@@H]3C(C)(C)[C@]3(OC(C)=O)[C@H](O)[C@@H](C)[C@]2(O)[C@@H]2C=C(C)C(=O)[C@@]2(O)C1	did not activate PKC
